Below is a list of entries, each paired with its recorded TGI value.
test system: SK-MEL-2 melanoma; test: NCI tumour cell line growth inhibition, 48 h

Some compounds with recorded TGI:
| compound | result |
| --- | --- |
| CCCNC(=S)N=Nc1c(O)[nH]c2ccccc12 | > 100 µM |
| CC1=C2C(=O)c3ccccc3C(=O)[C@H]2C[C@@H](N2CCCC2=O)O1 | > 100 µM |
| COc1ccc(/C=c2/sc3n(c2=O)NC2(CCCCC2)NN=3)cc1 | > 100 µM |
| O=C1C(=Cc2cccs2)C(=O)N(CCc2ccccc2)S(=O)(=O)N1CCc1ccccc1 | > 50 µM |
| CN1CCN(C(=S)N(C(=O)c2ccco2)C2CCCCC2)CC1 | > 100 µM |
| O=CC1=C(C(=O)OC(c2ccccc2)c2ccccc2)N2C(=O)[C@@H](NC(=O)Cc3cccs3)[C@H]2SC1 | > 100 µM |
| S=C1N=C2C(=N1)n1c3c(c4ccccc41)CCCC23 (centres undefined) | > 100 µM |
| CCc1cccc(CC)c1NC(=O)C(C#N)C1=C(Cl)C(=O)c2ccccc2C1=O (centres undefined) | 34.7 µM |

Proceeding to the next compound to report its TGI.
Req: Give the measured TGI for `CCOC(=O)/C(C#N)=C/c1ccc(SCc2ccco2)c([N+](=O)[O-])c1`
Resp: > 100 µM

* * *

test system: IGROV1 ovarian; test: NCI tumour cell line growth inhibition, 48 h
experimental readout: TGI

# annotated cases, reported TGI shown
| molecule | system under test | TGI |
| --- | --- | --- |
| C/C(=N\NC(=O)c1ccncc1)c1cccc(F)c1 | IGROV1 ovarian | > 10 µM |
| CC1=NN(C(=O)CC(=O)N(C(=O)c2ccccc2)c2ccc(Cl)cc2)C(=O)C1N=Nc1ccc([N+](=O)[O-])cc1 (centres undefined) | IGROV1 ovarian | > 10 µM |
| C#CCOC(=O)C(N)C(C)O (centres undefined) | IGROV1 ovarian | > 100 µM |

// switching to the query molecule
Req: Check the records and state TGI for N#CC1(Cc2ccccc2[N+](=O)[O-])c2ccccc2C2C(N1C(=O)c1ccccc1)C2(Cl)Cl (centres undefined)
Resp: > 100 µM

* * *

test system: A498 renal; assay: NCI tumour cell line growth inhibition, 48 h
Tag: Met if measured TGI is not below 30 µM, Not met if it is.

Here's what some known entries look like.
| compound | answer label |
| --- | --- |
| CCOC(=O)/C(=C\NCc1ccc2c(c1)OCO2)c1nc2ccccc2[nH]1 | Met |
| COc1cc(-c2csc(NC(=O)Nc3ccc(Cl)c(C(F)(F)F)c3)n2)cc(OC)c1OC | Not met |
| O=C(Nc1ccc([As]=[As]c2ccc(NC(=O)c3ccccc3)cc2)cc1)c1ccccc1 (stereo not given) | Not met |
| COC(=O)C1=C(C(=O)OC)C2(CCCCCC2=O)OC1=O (stereo not given) | Met |
| CN(C(=O)CCC(=O)O)c1ccccc1C(=O)O | Met |

Req: Could you tell me if the measured TGI of COC(=O)C1CCC2(C)[C@H](CCC3O[C@]32C)[C@@]1(C)CC(=O)c1ccoc1 (stereo not given in full) reaches 30 µM or more?
Resp: Met

Req: Say whether `Oc1cccc(-c2nc(-c3n[nH]c(=S)n3-c3ccccc3)cc3c2[nH]c2ccccc23)c1` shows TGI of 30 µM or more.
Resp: Not met

Req: Hi team, for `CN/N=C(\C)c1c(O)cc(C)oc1=O` , is the recorded TGI at or above 30 µM?
Resp: Met

Req: Could you tell me if the measured TGI of `NCCc1ccc2oc3cc(=O)c4ccccc4c-3nc2c1` reaches 30 µM or more?
Resp: Not met

Req: Does the reported TGI for COC(=O)C1Cc2c([nH]c3ccccc23)C(c2ccccc2O)N1 (stereo not given) fall at or above the 30 µM mark?
Resp: Met

Req: # check: TGI of `CCCc1[nH]nc(C(N)=O)c1N=NN(C)C` is greater than or equal to 30 µM
Resp: Met

Req: Threshold query (TGI >= 30 µM) on `COc1ccc2c(ccc3c(C(=O)NCCN(C)CCNC(=O)c4cn(C)c5c4ccc4cc(OC)ccc45)cn(C)c32)c1`
Resp: Met

Req: Does TGI meet or surpass 30 µM for COc1nc(Cl)nc(Cl)c1Cl (tested in a mixture with another compound) ?
Resp: Met

Req: Is reported TGI greater than or equal to 30 µM here: `O=C(/C=C/c1ccc(Br)cc1)c1ccc(NCc2nc3ccccc3[nH]2)cc1`
Resp: Met

Req: Decide: TGI of `O=C(CCCCN1CCOCC1)Nc1ccc(Cn2nnc3c2C(=O)c2nnn(Cc4ccc(NC(=O)CCCCN5CCOCC5)cc4)c2C3=O)cc1` >= 30 µM?
Resp: Not met

Req: Say whether `O=c1[nH]c2[nH]c(-c3ccc(Br)cc3)cc2c2ccccc12` shows TGI of 30 µM or more.
Resp: Met

Req: Test whether the compound `C/C=C1\C(=O)O[C@H]2C/C(C)=C/CC/C(C)=C/CC[C@@]3(C)O[C@@H]3C[C@@H]12` records TGI of 30 µM or higher.
Resp: Met

Req: Determine whether measured TGI meets or exceeds 30 µM for `CC(C)C[C@H](NC(=O)Cn1ccc(Nc2ccccc2)cc1=O)B(O)O`
Resp: Not met

* * *

tested on: HCT-15 colon; experiment: NCI tumour cell line growth inhibition, 48 h
Each item that follows carries a reported TGI.

Req: Fill in: TGI on HCT-15 colon, entry CC1(C)C2CCC13C(=O)C1OC3(C2)C2C(=O)N(c3ccccc3)C(=O)C12 (centres undefined)
Resp: > 100 µM

* * *

system: OVCAR-4 ovarian; test: NCI tumour cell line growth inhibition, 48 h
Parameter: TGI. Scope: all listed entries.

Req: Please report the measured TGI for `C=C1C(=O)O[C@H]2[C@H]1CC/C(COC(=O)/C=C\C(=O)NCc1ccc(Cn3c(=O)sn(CCCI)c3=O)cc1)=C\CC[C@@]1(C)O[C@@H]21` tested on OVCAR-4 ovarian.
Resp: 1.29 µM

Req: // output TGI; input `Cc1cc(O)c(/C=N/c2nc(-c3ccc([N+](=O)[O-])cc3)cs2)c(=O)o1` ; system OVCAR-4 ovarian
Resp: > 100 µM

Req: Print OVCAR-4 ovarian TGI for `CC(C)(C)c1cc(OCc2nnc3sc(-c4ccc(Cl)cc4)nn23)c(Cl)cc1OCc1nnc2sc(-c3ccc(Cl)cc3)nn12` .
Resp: 57.8 µM

* * *

Below is a list of entries, each paired with its recorded TGI value.
test system: LOX IMVI melanoma; test: NCI tumour cell line growth inhibition, 48 h
Write the answer as a number in µM, unit excluded.

| chemical string | number |
| --- | --- |
| CC1=C2C(=O)c3ccccc3C(=O)[C@H]2C[C@@H](N2CCCC2=O)O1 | 37.8 |

Please examine the following record next.
Req: Determine its reported TGI: `CC[C@@]1(O)C(=O)OCc2c1cc1n(c2=O)Cc2c-1nc1ccccc1c2Cl`
Resp: 0.387

* * *

test system: M14 melanoma; experiment: NCI tumour cell line growth inhibition, 48 h
TGI values, listed per item

Please review the entries below; each comes with its answer.
| compound | system under test | TGI |
| --- | --- | --- |
| C#CCOC(=O)C(N)C(C)O (stereo not given) | M14 melanoma | > 100 µM |
| CCOC(=O)C(NC(=O)CC)(Nc1ccccc1OC)C(F)(F)F (stereo not given) | M14 melanoma | > 100 µM |
| CN(C)CCCNCc1ccc(-c2ccc(F)c(Cl)c2)o1 | M14 melanoma | 22 µM |
| COc1ccc(/C=c2/sc3n(c2=O)NC2(CCCCC2)NN=3)cc1 | M14 melanoma | > 100 µM |
| CC(=O)OC1CC2C(C)(C)C(=O)C=C[C@]2(C)C2CC[C@]3(C)C(OCC(=O)[C@H]3c3ccoc3)[C@]12C (stereo not given in full) | M14 melanoma | 27.3 µM |
| COc1ccc2nc3ccccc3c(NCc3ccc(Cl)cc3)c2c1 | M14 melanoma | 3.47 µM |
| COC(=O)C1CCC2(C)[C@H](CCC3O[C@]32C)[C@@]1(C)CC(=O)c1ccoc1 (stereo not given in full) | M14 melanoma | > 100 µM |
| O=CC1=C(C(=O)OC(c2ccccc2)c2ccccc2)N2C(=O)[C@@H](NC(=O)Cc3cccs3)[C@H]2SC1 | M14 melanoma | > 100 µM |

Req: Provide only the value of recorded TGI for O=C(Nc1ccc([As]=[As]c2ccc(NC(=O)c3ccccc3)cc2)cc1)c1ccccc1 (stereo not given)
Resp: 2.49 µM

Req: Write down TGI measured for item C=C1C(NC)CCC23CC24CCC2(C)C(C(C)=O)C(O)CC2(C)C4CCC13 (stereo not given)
Resp: > 100 µM

Req: Please give the documented TGI of CC(=O)NC(CC(C)C)C(=O)NC(CC(C)C)C(=O)NC(C=O)CCCN=C(N)N (stereo not given)
Resp: > 100 µM

Req: Return reported TGI. Input compound: `Cc1ccc(Cc2nc(=S)[nH][nH]2)cc1`
Resp: > 100 µM

Req: Note TGI for the compound shown: `OCc1ccc(N(Cc2ccc(F)cc2)CC2CC2)cc1Cl`
Resp: 29.8 µM

Req: Give the measured TGI for `O=C(O)C1=CN=C(C(=O)O)NN1`
Resp: > 100 µM

Req: Give the reported value of TGI for this record: `CC(C)c1ccc(/C=C2\N=C(c3ccc([N+](=O)[O-])cc3)OC2=O)cc1`
Resp: > 100 µM

Req: Tell me TGI reported for `Cc1cc2c3ccccc3nc2c2cc[nH]c(C)c12`
Resp: 3.42 µM

Req: For the compound COC(=O)C1=C(C(=O)OC)C2(CCCCCC2=O)OC1=O (stereo not given) , report TGI.
Resp: > 100 µM

Req: Identify measured TGI corresponding to `CCOC(=O)c1nnn(-c2no[n+]([O-])c2-c2ccc(OC)cc2)c1COc1cccc2cccnc12`
Resp: 7.49 µM

Req: Specify measured TGI for `COC(=O)/C1=C/c2c([nH]c3ccccc23)/C(C(=O)OC)=C\c2c1[nH]c1ccccc21` .
Resp: > 50 µM

Req: Indicate its recorded TGI; the compound in question is `Cc1cc(O)c(/C=N/c2nc(-c3ccc([N+](=O)[O-])cc3)cs2)c(=O)o1`
Resp: > 100 µM
